# Measured on: THERMINATOR™ DNA polymerase (Thermococcus sp., UniProt Q56366, A485L/D141A/E143A)
# Construct: purchased New England Biolabs
# Sequence (Q56366 whole entry D141A/E143A/A485L): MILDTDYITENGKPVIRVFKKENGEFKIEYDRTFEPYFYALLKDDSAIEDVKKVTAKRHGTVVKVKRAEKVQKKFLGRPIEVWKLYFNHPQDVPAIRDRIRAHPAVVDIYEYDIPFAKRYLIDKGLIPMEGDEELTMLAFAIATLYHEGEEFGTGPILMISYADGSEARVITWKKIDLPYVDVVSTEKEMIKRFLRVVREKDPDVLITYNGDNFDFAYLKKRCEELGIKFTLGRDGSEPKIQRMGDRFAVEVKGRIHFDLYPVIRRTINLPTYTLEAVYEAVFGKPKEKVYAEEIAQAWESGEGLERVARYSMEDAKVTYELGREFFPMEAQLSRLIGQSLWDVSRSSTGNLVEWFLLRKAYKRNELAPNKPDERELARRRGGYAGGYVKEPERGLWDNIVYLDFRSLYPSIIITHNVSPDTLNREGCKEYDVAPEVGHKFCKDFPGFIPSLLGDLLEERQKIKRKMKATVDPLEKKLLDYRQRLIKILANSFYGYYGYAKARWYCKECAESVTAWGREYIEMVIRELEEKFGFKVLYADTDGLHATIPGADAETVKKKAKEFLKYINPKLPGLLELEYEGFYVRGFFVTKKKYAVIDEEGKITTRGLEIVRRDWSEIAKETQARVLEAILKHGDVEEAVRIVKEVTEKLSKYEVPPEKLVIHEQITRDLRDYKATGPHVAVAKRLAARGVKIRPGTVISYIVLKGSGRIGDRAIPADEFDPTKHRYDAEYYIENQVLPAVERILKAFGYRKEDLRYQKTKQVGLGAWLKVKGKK
# Test summary: biochemical
# Parameters: species or system Thermococcus species 9° N-7
# Test parameters: IC50 for incorporation, concentration at which the compound incorporates on half the primer-template complexes; complement template base
# Method: Natural and modified nucleotides were tested for incorporation efficiency using the “polymerase end point assay” (Wu et al., 2007, which is incorporated herein by reference). […] Incorporation efficiency is measured by determining the concentration at which the compound incorporates on half the primer-template complexes (IC50). Titrations of increasing compound concentration were performed to generate curves from which the IC50 can be determined. […]
Test readout: pIC50
# log scale: pIC50 equals minus log10 of the concentration in mol/L

Molecule: CC(C)[C@H](OCc1cn([C@H]2C[C@H](O)[C@@H](COP(=O)(O)OP(=O)(O)OP(=O)(O)O)O2)c(=O)[nH]c1=O)c1ccccc1[N+](=O)[O-]
pIC50: 8.70

molecule CC(C)C(Nc1ncnc2c1ncn2[C@H]1C[C@H](O)[C@@H](COP(=O)(O)OP(=O)(O)OP(=O)(O)O)O1)c1ccccc1[N+](=O)[O-] (single isomer, unassigned) , pIC50 observed: 7.92

Item: CC(C)C(OCc1cn([C@H]2C[C@H](O)[C@@H](COP(=O)(O)OP(=O)(O)OP(=O)(O)O)O2)c2nc(N)[nH]c(=O)c12)c1ccccc1[N+](=O)[O-] (single isomer, unassigned) [5p143-ds2] | pIC50: 8.89

Looking up COc1ccc(C(OCc2cn([C@H]3C[C@H](O)[C@@H](COP(=O)(O)OP(=O)(O)OP(=O)(O)O)O3)c3ncnc(N)c23)C(C)C)c([N+](=O)[O-])c1 (single isomer, unassigned) [6p087-ds1] , I see its pIC50 listed as 7.82

// CC(C)C(OCc1cn([C@H]2C[C@H](O)[C@@H](COP(=O)(O)OP(=O)(O)OP(=O)(O)O)O2)c2ncnc(N)c12)c1ccccc1[N+](=O)[O-] (single isomer, unassigned) [5p098-ds2] : pIC50 value = 8.24

----------
# Measured on: THERMINATOR™ DNA polymerase (Thermococcus sp., UniProt Q56366, A485L/D141A/E143A)
# Construct: purchased New England Biolabs
# Test summary: polymerase end point assay, mismatch discrimination (mismatched template bases)
# Format: biochemical, Thermococcus species 9° N-7
# Test parameters: template base "A"
Test readout: Mismatch/match ratio (10^2)

Answered examples (3):
Compound: Nc1nc2c(ncn2[C@H]2C[C@H](O)[C@@H](COP(=O)(O)OP(=O)(O)OP(=O)(O)O)O2)c(=O)[nH]1 [dGTP, reference compound]
Mismatch/match ratio (10^2): 3.6 10^2

Compound: Nc1nc2c(c(COCc3ccccc3[N+](=O)[O-])cn2[C@H]2C[C@H](O)[C@@H](COP(=O)(O)OP(=O)(O)OP(=O)(O)O)O2)c(=O)[nH]1
Mismatch/match ratio (10^2): 2.5 10^2

Compound: CC(C)C(OCc1cn([C@H]2C[C@H](O)[C@@H](COP(=O)(O)OP(=O)(O)OP(=O)(O)O)O2)c2nc(N)[nH]c(=O)c12)c1ccccc1[N+](=O)[O-] (single isomer, unassigned) [5p143-ds2]
Mismatch/match ratio (10^2): >770 10^2

// next entry
// compound CC(C)C(OCc1cn([C@H]2C[C@H](O)[C@@H](COP(=O)(O)OP(=O)(O)OP(=O)(O)O)O2)c2nc(N)[nH]c(=O)c12)c1ccccc1[N+](=O)[O-] (single isomer, unassigned) [5p143-ds1] , assay THERMINATOR™ DNA polymerase (Thermococcus sp., UniProt Q56366, A485L/D141A/E143A), Mismatch/match ratio (10^2) value: >830 10^2
